Activity calls are given as the source filed them.
The following compounds each carry a recorded Kd for Mitogen-activated protein kinase kinase kinase 3 (Homo sapiens, UniProt Q99759).

Need Kd, item C=CC(=O)N1CCC(Oc2cc3c(Nc4ccc(Cl)c(Cl)c4F)ncnc3cc2OC)CC1 > 30 µM (inactive)

Could you do the same for Cc1cc(Nc2cc(N3CCN(C)CC3)nc(/C=C/c3ccccc3)n2)n[nH]1 , please? > 30 µM (inactive)

Could you do the same for CC[C@@H]1C(=O)N(C)c2cnc(Nc3ccc(C(=O)N[C@H]4CC[C@H](N5CCN(CC6CC6)CC5)CC4)cc3OC)nc2N1C(C)C , please? > 30 µM (inactive)

Could you do the same for Cn1ncc(Cl)c1-c1cc(C(=O)N[C@H](CN)Cc2cccc(F)c2)sc1Cl , please? > 30 µM (inactive)

Could you do the same for O=C(Nc1cccc(Cl)c1)Nc1ncc(CCNc2ncnc3ccsc23)s1 , please? > 30 µM (inactive)

Could you do the same for C[C@@H]1CN(Cc2ccc(F)cc2)[C@@H](C)CN1C(=O)c1cc2c(C(=O)C(=O)N(C)C)cn(C)c2cc1Cl , please? > 30 µM (inactive)

Could you do the same for C[C@@H](c1ccc2nccn2c1)n1nnc2ncc(-c3cnn(C)c3)nc21 , please? > 30 µM (inactive)

Could you do the same for O=C1NC(=O)/C(=C/c2ccc3nccc(-c4ccncc4)c3c2)S1 , please? > 30 µM (inactive)

* * *

# Test target: Ephrin type-A receptor 2 (Homo sapiens, UniProt P29317); also: in the data inactive means no Kd found up to 30 µM
# Sequence (P29317 whole entry): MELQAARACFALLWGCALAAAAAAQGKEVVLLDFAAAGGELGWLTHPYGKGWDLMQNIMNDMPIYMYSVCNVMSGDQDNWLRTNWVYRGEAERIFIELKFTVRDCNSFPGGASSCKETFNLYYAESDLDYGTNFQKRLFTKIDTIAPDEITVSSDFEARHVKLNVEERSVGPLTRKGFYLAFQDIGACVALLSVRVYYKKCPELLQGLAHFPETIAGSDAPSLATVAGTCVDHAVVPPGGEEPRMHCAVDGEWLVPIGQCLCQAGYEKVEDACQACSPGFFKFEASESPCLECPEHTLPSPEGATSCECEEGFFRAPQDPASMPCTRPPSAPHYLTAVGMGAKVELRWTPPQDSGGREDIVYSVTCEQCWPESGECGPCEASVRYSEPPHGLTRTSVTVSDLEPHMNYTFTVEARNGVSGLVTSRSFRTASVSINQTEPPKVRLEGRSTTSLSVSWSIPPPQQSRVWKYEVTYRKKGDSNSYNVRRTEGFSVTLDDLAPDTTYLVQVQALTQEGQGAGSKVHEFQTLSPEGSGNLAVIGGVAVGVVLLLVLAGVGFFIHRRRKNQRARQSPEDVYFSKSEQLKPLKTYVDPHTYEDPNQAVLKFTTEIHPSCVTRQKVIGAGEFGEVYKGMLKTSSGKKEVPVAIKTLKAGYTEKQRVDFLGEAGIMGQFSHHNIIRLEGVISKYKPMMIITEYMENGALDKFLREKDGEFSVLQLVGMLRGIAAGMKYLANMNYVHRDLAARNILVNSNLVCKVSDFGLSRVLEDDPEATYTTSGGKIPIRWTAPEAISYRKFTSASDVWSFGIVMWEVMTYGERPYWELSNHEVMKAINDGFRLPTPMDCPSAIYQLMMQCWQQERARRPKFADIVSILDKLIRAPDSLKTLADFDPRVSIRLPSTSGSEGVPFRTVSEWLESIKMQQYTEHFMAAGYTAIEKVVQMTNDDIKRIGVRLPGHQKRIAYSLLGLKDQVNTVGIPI
The source made the active and inactive calls.
Hello, when you answer, please use one of the following outcomes: active, inactive

Hi, do you know how COCCNCc1ccc(-c2cc3nccc(Oc4ccc(NC(=S)NC(=O)Cc5ccc(F)cc5)cc4F)c3s2)nc1 [GLESATINIB] came out in this test? inactive

Could you do the same for Cc1ccc(NC(=O)c2ccc(CN3CC[C@H](N(C)C)C3)c(C(F)(F)F)c2)cc1Nc1nccc(-c2cncnc2)n1 [BAFETINIB] , please? active

Could you do the same for CN1N=C(N)c2cn([C@@H]3O[C@H](COP(=O)(O)O)[C@@H](O)[C@H]3O)c3ncnc1c23 [TRICIRIBINE PHOSPHATE] , please? inactive

Could you do the same for COC(=O)N[C@@H](C)CNc1nccc(-c2cn(C(C)C)nc2-c2cc(Cl)cc(NS(C)(=O)=O)c2F)n1 [ENCORAFENIB] , please? inactive

Could you do the same for CO[C@H]1C[C@@H]2CC[C@@H](C)[C@@](O)(O2)C(=O)C(=O)N2CCCC[C@H]2C(=O)O[C@H]([C@H](C)C[C@@H]2CC[C@@H](OCCO)[C@H](OC)C2)CC(=O)[C@H](C)/C=C(\C)[C@@H](O)[C@@H](OC)C(=O)[C@H](C)C[C@H](C)/C=C/C=C/C=C/1C [EVEROLIMUS] , please? inactive

Could you do the same for Cc1cc([C@@H](C)Nc2ccccc2C(=O)O)c2nc(N3CCOCC3)cc(=O)n2c1 [AZD-6482] , please? inactive

Could you do the same for CCc1cnn2c(NCc3ccc[n+]([O-])c3)cc(N3CCCC[C@H]3CCO)nc12 [DINACICLIB] , please? inactive

Could you do the same for CN1CCC(CNc2ccc3ncc(-c4cccc(OC(F)(F)F)c4)n3n2)CC1 [SGI-1776] , please? inactive

Could you do the same for CNC(=O)c1cc(Oc2ccc(NC(=O)Nc3ccc(Cl)c(C(F)(F)F)c3)c(F)c2)ccn1 [REGORAFENIB] , please? active

Could you do the same for CNC(=O)c1ccc(C)c(-n2c(C)cc(OCc3ccc(F)cc3F)c(Br)c2=O)c1 [PH-797804] , please? inactive

Could you do the same for CCN1CCN(Cc2ccc(-c3cc4c(N[C@H](C)c5ccccc5)ncnc4[nH]3)cc2)CC1 [AEE-788] , please? inactive

Could you do the same for CNS(=O)(=O)Nc1nccc(Cc2c(C)c3ccc(Oc4ncccn4)cc3oc2=O)c1F [AVUTOMETINIB] , please? inactive

Could you do the same for O=C1NC(=O)/C(=C/c2ccc3nccc(-c4ccncc4)c3c2)S1 [GSK-1059615] , please? inactive

Could you do the same for Cc1ccc(S(=O)(=O)Nc2nc3ccccc3nc2Nc2ccc3nsnc3c2)cc1 , please? inactive

Could you do the same for C[C@@H](c1ccc2nccn2c1)n1nnc2ncc(-c3cnn(C)c3)nc21 [SAVOLITINIB] , please? inactive

Could you do the same for N[C@@H]1CCCN(c2c(/C=C3\SC(=O)NC3=O)cccc2-c2ccccc2)C1 , please? inactive

* * *

# Test target: Cyclin-dependent kinase 5 (Homo sapiens, UniProt Q00535); also: in the data inactive means no Kd found up to 30 µM
# Sequence (Q00535 whole entry): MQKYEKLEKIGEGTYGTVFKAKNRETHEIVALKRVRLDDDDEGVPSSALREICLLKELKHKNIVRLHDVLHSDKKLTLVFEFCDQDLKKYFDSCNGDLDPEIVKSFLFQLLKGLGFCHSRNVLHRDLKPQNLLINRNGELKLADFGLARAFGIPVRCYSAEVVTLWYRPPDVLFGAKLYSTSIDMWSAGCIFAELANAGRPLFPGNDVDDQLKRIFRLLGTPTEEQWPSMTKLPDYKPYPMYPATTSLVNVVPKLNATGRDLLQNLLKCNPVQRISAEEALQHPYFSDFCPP
Activity calls are given as the source filed them.
Hello, when you answer, please use one of the following outcomes: active, inactive

Hi, do you know how N[C@@H]1CCCN(c2c(/C=C3\SC(=O)NC3=O)cccc2-c2ccccc2)C1 came out in this test? inactive

Could you do the same for CN(C)C(=O)c1cc2cnc(Nc3ccc(N4CCNCC4)cn3)nc2n1C1CCCC1 [RIBOCICLIB] , please? inactive

Could you do the same for CN1N=C(N)c2cn([C@@H]3O[C@H](COP(=O)(O)O)[C@@H](O)[C@H]3O)c3ncnc1c23 [TRICIRIBINE PHOSPHATE] , please? inactive

Could you do the same for COC(=O)N[C@@H](C)CNc1nccc(-c2cn(C(C)C)nc2-c2cc(Cl)cc(NS(C)(=O)=O)c2F)n1 [ENCORAFENIB] , please? inactive

Could you do the same for CNC(=O)c1ccc(C)c(-n2c(C)cc(OCc3ccc(F)cc3F)c(Br)c2=O)c1 [PH-797804] , please? inactive

Could you do the same for CCn1c(=O)c(-c2cc[nH]n2)cc2c(C)nc(N)nc21 [VOXTALISIB] , please? inactive

Could you do the same for Cc1ccc(-n2nc(C(C)(C)C)cc2NC(=O)NCc2cc(F)ccc2Oc2ccc3c(cnn3CCO)c2)cc1 [PEXMETINIB] , please? active

Could you do the same for CC(=O)Nc1cccc(-n2c(=O)n(C3CC3)c(=O)c3c(Nc4ccc(I)cc4F)n(C)c(=O)c(C)c32)c1 [TRAMETINIB] , please? inactive

* * *

# Test target: Serine/threonine-protein kinase NLK (Homo sapiens, UniProt Q9UBE8); also: in the data inactive means no Kd found up to 30 µM
# Sequence (Q9UBE8 whole entry): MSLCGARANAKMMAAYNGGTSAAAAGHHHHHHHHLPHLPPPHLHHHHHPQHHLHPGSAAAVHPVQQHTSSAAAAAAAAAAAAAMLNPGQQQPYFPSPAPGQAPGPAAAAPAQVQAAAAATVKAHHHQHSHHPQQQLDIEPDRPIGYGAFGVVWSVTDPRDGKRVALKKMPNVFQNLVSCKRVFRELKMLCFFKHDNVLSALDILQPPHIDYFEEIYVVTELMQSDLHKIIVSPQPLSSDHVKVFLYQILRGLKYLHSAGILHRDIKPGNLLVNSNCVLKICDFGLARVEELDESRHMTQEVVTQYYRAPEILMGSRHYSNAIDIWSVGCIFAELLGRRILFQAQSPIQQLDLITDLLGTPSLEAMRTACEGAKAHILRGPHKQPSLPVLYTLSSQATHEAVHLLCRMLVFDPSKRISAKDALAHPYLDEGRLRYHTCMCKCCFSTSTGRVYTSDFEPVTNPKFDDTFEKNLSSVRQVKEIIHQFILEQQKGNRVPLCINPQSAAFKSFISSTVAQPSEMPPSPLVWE
Activity calls are given as the source filed them.
Hello, when you answer, please use one of the following outcomes: true (1) = active, false (0) = inactive

Hi, do you know how COC(=O)[C@@]1(O)C[C@H]2O[C@]1(C)n1c3ccccc3c3c4c(c5c6ccccc6n2c5c31)C(=O)NC4 [K-252A] came out in this test? false (0)

Could you do the same for Cn1cc(-c2ccc3nnc(C(F)(F)c4ccc5ncccc5c4)n3n2)cn1 [JNJ-38877605] , please? false (0)

Could you do the same for COC(=O)N[C@@H](C)CNc1nccc(-c2cn(C(C)C)nc2-c2cc(Cl)cc(NS(C)(=O)=O)c2F)n1 [ENCORAFENIB] , please? true (1)

Could you do the same for C[C@@H]1CN(Cc2ccc(F)cc2)[C@@H](C)CN1C(=O)c1cc2c(C(=O)C(=O)N(C)C)cn(C)c2cc1Cl [TALMAPIMOD] , please? false (0)

Could you do the same for CN1CCC(COc2cnc(-c3cccc(Cn4nc(-c5cccc(C#N)c5)ccc4=O)c3)nc2)CC1 [TEPOTINIB] , please? false (0)

Could you do the same for COc1cc2nccc(Oc3ccc(NC(=O)NC4CC4)c(Cl)c3)c2cc1C(N)=O [LENVATINIB] , please? false (0)

Could you do the same for COc1cc(N2CCC(N3CCN(C)CC3)CC2)ccc1Nc1ncnc(Nc2ccccc2S(=O)(=O)C(C)C)n1 [ASP-3026] , please? false (0)

Could you do the same for COc1cc(OC)c(/C=C/S(=O)(=O)Cc2ccc(OC)c(NCC(=O)O)c2)c(OC)c1 [RIGOSERTIB] , please? false (0)

* * *

The source made the active and inactive calls.
The following compounds each carry a recorded Kd for ATP-dependent RNA helicase DDX3X (Homo sapiens).

Need Kd, item CCS(=O)(=O)N1CC(CC#N)(n2cc(-c3ncnc4[nH]ccc34)cn2)C1 > 30 µM (inactive)

Could you do the same for CN1CCN(c2ccc3nc(-c4c(N)c5c(F)cccc5[nH]c4=O)[nH]c3c2)CC1 , please? > 30 µM (inactive)

Could you do the same for CO[C@H]1C[C@@H]2CC[C@@H](C)[C@@](O)(O2)C(=O)C(=O)N2CCCC[C@H]2C(=O)O[C@H]([C@H](C)C[C@@H]2CC[C@@H](OCCO)[C@H](OC)C2)CC(=O)[C@H](C)/C=C(\C)[C@@H](O)[C@@H](OC)C(=O)[C@H](C)C[C@H](C)/C=C/C=C/C=C/1C , please? > 30 µM (inactive)

* * *

# Test target: UniProt:Q05397
# Sequence (Q05397 whole entry): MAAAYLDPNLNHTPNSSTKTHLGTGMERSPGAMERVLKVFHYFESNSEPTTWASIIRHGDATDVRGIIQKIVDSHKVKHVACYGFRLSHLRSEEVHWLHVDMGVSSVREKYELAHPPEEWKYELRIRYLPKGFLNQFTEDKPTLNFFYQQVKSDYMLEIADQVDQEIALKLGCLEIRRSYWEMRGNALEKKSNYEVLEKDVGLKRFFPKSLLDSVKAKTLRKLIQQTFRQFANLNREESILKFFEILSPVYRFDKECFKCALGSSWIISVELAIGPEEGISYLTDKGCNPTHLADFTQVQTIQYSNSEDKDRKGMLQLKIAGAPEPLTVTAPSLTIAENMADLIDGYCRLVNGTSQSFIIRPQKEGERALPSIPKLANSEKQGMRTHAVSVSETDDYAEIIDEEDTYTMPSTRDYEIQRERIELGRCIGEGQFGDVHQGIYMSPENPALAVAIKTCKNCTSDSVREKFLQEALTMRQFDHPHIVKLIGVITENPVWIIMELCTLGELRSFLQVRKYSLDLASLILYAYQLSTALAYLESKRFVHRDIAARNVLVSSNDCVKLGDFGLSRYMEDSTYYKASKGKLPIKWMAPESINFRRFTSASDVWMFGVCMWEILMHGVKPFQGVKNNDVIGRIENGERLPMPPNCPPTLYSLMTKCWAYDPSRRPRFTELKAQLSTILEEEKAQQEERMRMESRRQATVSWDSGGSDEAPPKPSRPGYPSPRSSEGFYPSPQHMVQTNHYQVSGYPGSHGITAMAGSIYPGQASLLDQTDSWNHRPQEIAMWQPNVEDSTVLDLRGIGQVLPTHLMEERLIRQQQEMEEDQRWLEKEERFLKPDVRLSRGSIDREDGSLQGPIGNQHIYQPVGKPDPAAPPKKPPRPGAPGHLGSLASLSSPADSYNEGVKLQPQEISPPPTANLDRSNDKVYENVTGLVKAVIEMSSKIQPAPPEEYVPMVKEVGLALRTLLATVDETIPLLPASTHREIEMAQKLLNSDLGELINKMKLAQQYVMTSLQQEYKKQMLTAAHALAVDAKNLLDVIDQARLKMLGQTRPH
Calls of active or inactive are those of the source.
Hello, when you answer, please use one of the following outcomes: Y = active, N = inactive

Hi, do you know how Cc1ccc(-n2nc(C(C)(C)C)cc2NC(=O)NCc2cc(F)ccc2Oc2ccc3c(cnn3CCO)c2)cc1 [PEXMETINIB] came out in this test? N

Could you do the same for COc1cc(CCc2cc(NC(=O)c3ccc(N4C[C@@H](C)N[C@@H](C)C4)cc3)n[nH]2)cc(OC)c1 [AZD-4547] , please? N

Could you do the same for COc1cc(OC)c(/C=C/S(=O)(=O)Cc2ccc(OC)c(NCC(=O)O)c2)c(OC)c1 [RIGOSERTIB] , please? N

Could you do the same for O=C(O)[C@]1(Cc2cccc(Nc3nccs3)n2)CC[C@@H](Oc2cccc(Cl)c2F)CC1 [MK-5108] , please? N

Could you do the same for Cc1cc([C@@H](C)Nc2ccccc2C(=O)O)c2nc(N3CCOCC3)cc(=O)n2c1 [AZD-6482] , please? N

Could you do the same for O=C(Nc1ccc(-c2ccnc(Nc3ccc(N4CCOCC4)cc3)n2)cc1)C1CCCN1 (stereo unspecified) [XL-019] , please? N

Could you do the same for CCn1c(=O)c(-c2cc[nH]n2)cc2c(C)nc(N)nc21 [VOXTALISIB] , please? N

Could you do the same for Cc1ccc(S(=O)(=O)Nc2nc3ccccc3nc2Nc2ccc3nsnc3c2)cc1 , please? N

Could you do the same for C[C@@H]1CN(Cc2ccc(F)cc2)[C@@H](C)CN1C(=O)c1cc2c(C(=O)C(=O)N(C)C)cn(C)c2cc1Cl [TALMAPIMOD] , please? N

Could you do the same for CC[C@@H]1C(=O)N(C)c2cnc(Nc3ccc(C(=O)N[C@H]4CC[C@H](N5CCN(CC6CC6)CC5)CC4)cc3OC)nc2N1C(C)C [VOLASERTIB] , please? Y

Could you do the same for Cc1cc2c(F)c(Oc3ncnn4cc(OC[C@@H](C)OC(=O)[C@H](C)N)c(C)c34)ccc2[nH]1 [BRIVANIB ALANINATE] , please? N

Could you do the same for CC[C@H](Nc1ncnc2[nH]cnc12)c1nc2cccc(F)c2c(=O)n1-c1ccccc1 [IDELALISIB] , please? N

Could you do the same for CN1N=C(N)c2cn([C@@H]3O[C@H](COP(=O)(O)O)[C@@H](O)[C@H]3O)c3ncnc1c23 [TRICIRIBINE PHOSPHATE] , please? N

Could you do the same for O=C(c1ccc(F)c(F)c1Nc1ccc(I)cc1F)N1CC(O)([C@@H]2CCCCN2)C1 [COBIMETINIB] , please? N

Could you do the same for COc1cc2nccc(Oc3ccc(NC(=O)Nc4cc(C)on4)c(Cl)c3)c2cc1OC [TIVOZANIB] , please? N

Could you do the same for CN(C)C(=O)c1cc2cnc(Nc3ccc(N4CCNCC4)cn3)nc2n1C1CCCC1 [RIBOCICLIB] , please? N

Could you do the same for Cn1cc(-c2ccc3nnc(C(F)(F)c4ccc5ncccc5c4)n3n2)cn1 [JNJ-38877605] , please? N

Could you do the same for COC(=O)N[C@@H](C)CNc1nccc(-c2cn(C(C)C)nc2-c2cc(Cl)cc(NS(C)(=O)=O)c2F)n1 [ENCORAFENIB] , please? N

Could you do the same for O=C1NC(=O)/C(=C/c2ccc3nccc(-c4ccncc4)c3c2)S1 [GSK-1059615] , please? N

Could you do the same for Cn1cc(-c2ccc(F)c(C(F)(F)F)c2)nc1C1CCN(c2ncnc3[nH]ncc23)CC1 [LY-2584702] , please? N

Could you do the same for Cc1ccc(NC(=O)c2ccc(CN3CC[C@H](N(C)C)C3)c(C(F)(F)F)c2)cc1Nc1nccc(-c2cncnc2)n1 [BAFETINIB] , please? N

Could you do the same for N[C@@H]1CCCN(c2c(/C=C3\SC(=O)NC3=O)cccc2-c2ccccc2)C1 , please? N

Could you do the same for CO[C@H]1C[C@@H]2CC[C@@H](C)[C@@](O)(O2)C(=O)C(=O)N2CCCC[C@H]2C(=O)O[C@H]([C@H](C)C[C@@H]2CC[C@@H](OCCO)[C@H](OC)C2)CC(=O)[C@H](C)/C=C(\C)[C@@H](O)[C@@H](OC)C(=O)[C@H](C)C[C@H](C)/C=C/C=C/C=C/1C [EVEROLIMUS] , please? N

Could you do the same for COc1ccc(-c2ccc3c(N4CCOC[C@@H]4C)nc(N4CCOC[C@@H]4C)nc3n2)cc1CO [AZD-8055] , please? N

Could you do the same for CNC(=O)c1ccc(-c2cnc3ncc(Cc4ccc5ncccc5c4)n3n2)cc1F [CAPMATINIB] , please? N

Could you do the same for Cc1cc(-c2cc(O)ccc2Cl)cc2nnc(Nc3ccc(OCCN4CCCC4)cc3)nc12 , please? N

Could you do the same for CNC(=O)CN1CCC(Oc2cc3c(Nc4cccc(Cl)c4F)ncnc3cc2OC)CC1 [SAPITINIB] , please? N

Could you do the same for CN1CC[C@@H](c2c(O)cc(O)c3c(=O)cc(-c4ccccc4Cl)oc23)[C@@H]1CO , please? N

Could you do the same for C[C@@H](c1ccc2nccn2c1)n1nnc2ncc(-c3cnn(C)c3)nc21 [SAVOLITINIB] , please? N

Could you do the same for CCN1CCN(Cc2ccc(-c3cc4c(N[C@H](C)c5ccccc5)ncnc4[nH]3)cc2)CC1 [AEE-788] , please? N

Could you do the same for C[C@@H](Nc1cc(F)cc(F)c1)c1cc(C(=O)N(C)C)cc2c(=O)cc(N3CCOCC3)oc12 [AZD-8186] , please? N
